- Target system: TEC (Homo sapiens, UniProt P42680)
- Sequence (P42680 whole entry): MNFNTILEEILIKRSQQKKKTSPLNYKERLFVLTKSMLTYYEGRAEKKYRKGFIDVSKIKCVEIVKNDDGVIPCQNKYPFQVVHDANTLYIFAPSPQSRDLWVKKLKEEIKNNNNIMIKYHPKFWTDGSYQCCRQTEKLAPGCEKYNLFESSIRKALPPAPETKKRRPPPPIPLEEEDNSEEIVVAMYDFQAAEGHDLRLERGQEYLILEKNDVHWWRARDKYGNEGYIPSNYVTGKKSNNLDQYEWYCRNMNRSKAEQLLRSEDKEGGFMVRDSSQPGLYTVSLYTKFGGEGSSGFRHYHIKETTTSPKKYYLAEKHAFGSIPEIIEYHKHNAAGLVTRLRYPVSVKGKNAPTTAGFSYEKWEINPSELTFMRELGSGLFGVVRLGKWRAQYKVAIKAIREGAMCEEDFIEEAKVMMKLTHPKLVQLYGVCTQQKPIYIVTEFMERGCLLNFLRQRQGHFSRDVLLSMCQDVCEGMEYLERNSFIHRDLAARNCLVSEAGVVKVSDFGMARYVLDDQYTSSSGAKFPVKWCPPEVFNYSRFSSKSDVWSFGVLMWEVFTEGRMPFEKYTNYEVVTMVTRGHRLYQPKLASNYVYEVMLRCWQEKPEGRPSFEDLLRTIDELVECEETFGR
- Test description: Inhibition of a panel of kinases, in vitro HotSpot kinase assay: TEC
- Type: biochemical
- Condition description: Table 13, A compounds; 1 μM ATP
Quick list: IC50 per entry.

So for Cn1cc(Nc2nc(N3C[C@@H](NC(=O)c4ccc(C5CC5)cc4)CC(F)(F)C3)cnc2C(N)=O)cn1 , the logged IC50 turned out to be 1000 to 10000 nM

So for CN1CCN(C(=O)c2ccc(Nc3nc(N4CCC[C@@H](n5ccc6cc(C7CC7)ccc6c5=O)C4)cnc3C(N)=O)cc2)CC1 , the logged IC50 turned out to be 10 to 100 nM

So for CC1(c2ccc(Nc3nc(N4CCC[C@@H](n5ccc6cc(C7CC7)ccc6c5=O)C4)cnc3C(N)=O)cc2)CCN(C2CCCC2)CC1 , the logged IC50 turned out to be ≤ 10 nM

So for C[C@@H]1[C@H](NC(=O)c2ccc(C3CC3)cc2)CCCN1c1cnc(C(N)=O)c(Nc2cnn(C3CCN(C)CC3)c2)n1 , the logged IC50 turned out to be 10 to 100 nM

So for C[C@@H]1[C@H](NC(=O)c2ccc(C3CC3)cc2F)CCCN1c1cnc(C(N)=O)c(Nc2ccc(N3CCN(C)CC3)nc2)n1 , the logged IC50 turned out to be 100 to 1000 nM

====

- Target system: UniProtKB P12931
- Sequence (P12931 whole entry): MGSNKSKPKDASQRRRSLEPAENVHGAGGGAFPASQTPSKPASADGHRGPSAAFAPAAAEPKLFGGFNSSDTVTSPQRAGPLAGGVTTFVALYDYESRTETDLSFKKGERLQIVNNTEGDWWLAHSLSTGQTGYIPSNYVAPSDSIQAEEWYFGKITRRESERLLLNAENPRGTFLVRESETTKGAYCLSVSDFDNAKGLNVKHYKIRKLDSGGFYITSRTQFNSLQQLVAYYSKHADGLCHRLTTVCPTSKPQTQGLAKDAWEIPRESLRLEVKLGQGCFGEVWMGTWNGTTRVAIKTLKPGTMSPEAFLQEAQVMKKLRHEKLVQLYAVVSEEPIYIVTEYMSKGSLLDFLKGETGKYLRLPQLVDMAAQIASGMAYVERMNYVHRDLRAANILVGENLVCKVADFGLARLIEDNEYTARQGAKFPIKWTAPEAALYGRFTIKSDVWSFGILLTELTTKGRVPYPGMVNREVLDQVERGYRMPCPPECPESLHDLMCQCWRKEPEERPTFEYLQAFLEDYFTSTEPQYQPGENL
- Test description: Inhibition of a panel of kinases, in vitro HotSpot kinase assay: SRC
- Format: biochemical
- Condition description: fold relative to Btk IC50 value
Property measured: SRC* IC50 relative to Btk IC50 value (x)

Please review the entries below; each comes with its answer.
| Structure smiles string | Property measured | Quantitative readout |
| --- | --- | --- |
| C[C@@H]1[C@H](NC(=O)c2ccc(C3CC3)cc2)CCCN1c1nnc(C(N)=O)c(Nc2cnn(C)c2)n1 | SRC* IC50 relative to Btk IC50 value | 47 |
| C[C@@H]1[C@H](NC(=O)c2ccc(C3CC3)cc2)CCCN1c1cnc(C(N)=O)c(Nc2cnn(C(F)F)c2)n1 | SRC* IC50 relative to Btk IC50 value | 69 |

[I] C[C@@H]1[C@H](NC(=O)c2ccc(C(C)(C)C)cc2)CCCN1c1cnc(C(N)=O)c(Nc2cnn(C)c2)n1
[II] C[C@@H]1[C@H](NC(=O)c2ccc(C3COC3)cc2)CCCN1c1cnc(C(N)=O)c(Nc2cnn(C)c2)n1
Challenge: Would you kindly point out which of I and II has the smaller SRC* IC50 relative to Btk IC50 value figure? Pick one; state its label.
Response given: II

====

- Target system: ITK (Homo sapiens)
- Sequence (Q08881 whole entry): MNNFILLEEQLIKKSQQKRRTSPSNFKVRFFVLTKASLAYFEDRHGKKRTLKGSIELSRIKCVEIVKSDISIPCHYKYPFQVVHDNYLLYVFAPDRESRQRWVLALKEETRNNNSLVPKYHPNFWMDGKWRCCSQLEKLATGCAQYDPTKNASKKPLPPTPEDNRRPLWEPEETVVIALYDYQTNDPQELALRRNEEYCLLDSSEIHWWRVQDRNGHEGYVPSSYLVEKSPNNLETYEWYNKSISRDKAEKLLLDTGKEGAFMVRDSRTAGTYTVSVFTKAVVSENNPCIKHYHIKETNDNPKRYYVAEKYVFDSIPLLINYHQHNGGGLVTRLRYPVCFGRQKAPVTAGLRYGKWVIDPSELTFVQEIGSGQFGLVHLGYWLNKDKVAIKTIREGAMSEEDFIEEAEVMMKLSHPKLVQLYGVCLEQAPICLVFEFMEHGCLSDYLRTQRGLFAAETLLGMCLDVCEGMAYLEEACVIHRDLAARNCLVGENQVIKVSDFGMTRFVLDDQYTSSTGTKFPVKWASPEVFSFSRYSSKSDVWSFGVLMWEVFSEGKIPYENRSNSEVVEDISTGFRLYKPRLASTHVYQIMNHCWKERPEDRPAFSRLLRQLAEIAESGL
- Test description: Inhibition of a panel of kinases, in vitro HotSpot kinase assay: ITK
- Format: biochemical
- Condition description: D-compounds panel data; 1 μM ATP
pIC50: −log10 of the molar value.
Property measured: pIC50

Please review the entries below; each comes with its answer.
| Compound | pIC50 |
| --- | --- |
| C[C@@H]1[C@H](NC(=O)c2ccc(C3CC3)cc2F)CCCN1c1cnc(C(N)=O)c(Nc2ccc(S(=O)(=O)N3CCCC3)cc2)n1 | < 5.00 |
| CC1COc2cc(C(=O)N[C@@H]3CCCN(c4cnc(C(N)=O)c(Nc5cnn(C)c5)n4)[C@@H]3C)ccc2C1 (some centres unmarked) | 6.00 to 7.00 |
| C[C@@H]1[C@H](NC(=O)N(C)C)CCCN1c1cnc(C(N)=O)c(Nc2ccc(CN3CCN(C)CC3)cc2)c1 | 5.00 to 6.00 |
| C[C@@H]1[C@H](N2CCN(C)C2=O)CCCN1c1cnc(C(N)=O)c(Nc2cnn(C)c2)n1 | 6.00 to 7.00 |
| Cc1nsc(Nc2nc(N3CCC[C@@H](NC(=O)N(C)C)[C@H]3C)cnc2C(N)=O)c1C | < 5.00 |

So for C[C@@H]1[C@H](NC(=O)c2ccc(C3CC3)cc2)CCCN1c1cnc(C(N)=O)c(Nc2cnn(C3CCN(C(=O)C4CC4)CC3)c2)n1 , the logged pIC50 turned out to be 6.00 to 7.00

So for NC(=O)c1ncc(N2CCC[C@@H](NC(=O)c3ccc(C4CC4)cc3F)C2)nc1Nc1cc(-c2ccccc2)ns1 , the logged pIC50 turned out to be < 5.00

So for Cc1cc(Nc2cc(N3CCC[C@@H](NC(=O)c4ccc(C5CC5)cc4F)[C@H]3C)cnc2C(N)=O)sn1 , the logged pIC50 turned out to be 5.00 to 6.00

So for C[C@@H]1[C@H](NC(=O)c2ccc(C3CC3)cc2)CCCN1c1cnc(C(N)=O)c(Nc2cnn(CCO)c2)n1 , the logged pIC50 turned out to be 6.00 to 7.00

So for C[C@@H]1[C@H](NC(=O)c2ccc(C3CC3)cc2)CCCN1c1cnc(C(N)=O)c(Nc2cnn(C)c2F)n1 , the logged pIC50 turned out to be < 5.00

So for C[C@@H]1[C@H](NC(=O)Nc2cccnc2)CCCN1c1cnc(C(N)=O)c(Nc2ccc(C3(C)CCN(C4CCCC4)CC3)cc2)n1 , the logged pIC50 turned out to be ≥ 8.00

So for C[C@@H]1[C@H](NC(=O)c2ccc(C3CC3)cc2F)CCCN1c1cnc(C(N)=O)c(Nc2ccc(C3(C)CCN(C4CC4)CC3)cc2)n1 , the logged pIC50 turned out to be 6.00 to 7.00

So for CN1CCN(c2ccc(Nc3nc(N4CCC[C@@H](n5ccc6cc(C7CC7)cc(F)c6c5=O)C4)cnc3C(N)=O)cc2)CC1 , the logged pIC50 turned out to be 6.00 to 7.00

So for Cc1cc(Nc2cc(N3CCC[C@@H](NC(=O)N(C)C)[C@H]3C)cnc2C(N)=O)sn1 , the logged pIC50 turned out to be 5.00 to 6.00

====

- Target system: UniProt P06239
- Sequence (P06239 whole entry): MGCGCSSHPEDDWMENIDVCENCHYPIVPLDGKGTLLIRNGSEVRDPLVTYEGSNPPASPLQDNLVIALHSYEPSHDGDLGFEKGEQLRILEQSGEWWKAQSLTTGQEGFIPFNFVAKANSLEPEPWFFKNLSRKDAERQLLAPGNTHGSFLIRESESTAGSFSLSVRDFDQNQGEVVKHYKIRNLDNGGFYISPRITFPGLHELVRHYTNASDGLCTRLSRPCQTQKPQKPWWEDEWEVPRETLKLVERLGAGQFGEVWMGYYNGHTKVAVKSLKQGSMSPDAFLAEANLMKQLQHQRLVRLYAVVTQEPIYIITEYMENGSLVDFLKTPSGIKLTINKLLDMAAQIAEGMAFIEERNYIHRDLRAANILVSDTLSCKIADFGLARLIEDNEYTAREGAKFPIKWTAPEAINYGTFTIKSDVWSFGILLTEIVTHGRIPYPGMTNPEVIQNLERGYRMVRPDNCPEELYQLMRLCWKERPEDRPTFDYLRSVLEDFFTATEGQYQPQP
- Test description: Inhibition of a panel of kinases, in vitro HotSpot kinase assay: LCK
- Type: biochemical
- Condition description: D-compounds panel data; 1 μM ATP; read-out: IC50 LCK
pIC50: −log10 of the molar value.
Property measured: pIC50

Please review the entries below; each comes with its answer.
| Compound | Target system | pIC50 |
| --- | --- | --- |
| Cn1cc(Nc2nc(N3C[C@@H](NC(=O)c4ccc(C5CC5)cc4)CC(F)(F)C3)cnc2C(N)=O)cn1 [Example D-189] | UniProt P06239 | < 5.00 |
| C[C@@H]1[C@H](NC(=O)N(C)C)CCCN1c1cnc(C(N)=O)c(Nc2ccc(OC3CCN(C)CC3)cc2)n1 [Example D-33] | UniProt P06239 | 7.00 to 8.00 |
| C[C@@H]1[C@H](NC(=O)N(C)C)CCCN1c1cnc(C(N)=O)c(Nc2ccc(OC3CCN(C4CCCC4)CC3)cc2)n1 [Example D-102] | UniProt P06239 | 7.00 to 8.00 |
| C[C@@H]1[C@H](NC(=O)c2ccc(C3CC3)cc2)CCCN1c1cnc(C(N)=O)c(Nc2ccc(N3CCN(C)CC3)cc2F)n1 [Example D-103] | UniProt P06239 | 6.00 to 7.00 |
| C[C@@H]1C[C@H](NC(=O)c2ccc(C3CC3)cc2)CN(c2cnc(C(N)=O)c(Nc3cnn(C)c3)n2)C1 [Example D-32] | UniProt P06239 | 5.00 to 6.00 |
| C[C@@H]1[C@H](NC(=O)c2ccc(C3CC3)cc2)CCCN1c1cnc(C(N)=O)c(Nc2cnn(C)c2)c1 [Example D-207] | UniProt P06239 | 6.00 to 7.00 |

Attention now turns to another entry.
So for Cn1cc(Nc2nc(N3CCC(NC(=O)c4ccc(C5CC5)cc4)C(O)C3)cnc2C(N)=O)cn1 (single isomer, unassigned) [Example D-28] , the logged pIC50 turned out to be < 5.00

====

- Target system: UniProtKB P52333
- Sequence (P52333 whole entry): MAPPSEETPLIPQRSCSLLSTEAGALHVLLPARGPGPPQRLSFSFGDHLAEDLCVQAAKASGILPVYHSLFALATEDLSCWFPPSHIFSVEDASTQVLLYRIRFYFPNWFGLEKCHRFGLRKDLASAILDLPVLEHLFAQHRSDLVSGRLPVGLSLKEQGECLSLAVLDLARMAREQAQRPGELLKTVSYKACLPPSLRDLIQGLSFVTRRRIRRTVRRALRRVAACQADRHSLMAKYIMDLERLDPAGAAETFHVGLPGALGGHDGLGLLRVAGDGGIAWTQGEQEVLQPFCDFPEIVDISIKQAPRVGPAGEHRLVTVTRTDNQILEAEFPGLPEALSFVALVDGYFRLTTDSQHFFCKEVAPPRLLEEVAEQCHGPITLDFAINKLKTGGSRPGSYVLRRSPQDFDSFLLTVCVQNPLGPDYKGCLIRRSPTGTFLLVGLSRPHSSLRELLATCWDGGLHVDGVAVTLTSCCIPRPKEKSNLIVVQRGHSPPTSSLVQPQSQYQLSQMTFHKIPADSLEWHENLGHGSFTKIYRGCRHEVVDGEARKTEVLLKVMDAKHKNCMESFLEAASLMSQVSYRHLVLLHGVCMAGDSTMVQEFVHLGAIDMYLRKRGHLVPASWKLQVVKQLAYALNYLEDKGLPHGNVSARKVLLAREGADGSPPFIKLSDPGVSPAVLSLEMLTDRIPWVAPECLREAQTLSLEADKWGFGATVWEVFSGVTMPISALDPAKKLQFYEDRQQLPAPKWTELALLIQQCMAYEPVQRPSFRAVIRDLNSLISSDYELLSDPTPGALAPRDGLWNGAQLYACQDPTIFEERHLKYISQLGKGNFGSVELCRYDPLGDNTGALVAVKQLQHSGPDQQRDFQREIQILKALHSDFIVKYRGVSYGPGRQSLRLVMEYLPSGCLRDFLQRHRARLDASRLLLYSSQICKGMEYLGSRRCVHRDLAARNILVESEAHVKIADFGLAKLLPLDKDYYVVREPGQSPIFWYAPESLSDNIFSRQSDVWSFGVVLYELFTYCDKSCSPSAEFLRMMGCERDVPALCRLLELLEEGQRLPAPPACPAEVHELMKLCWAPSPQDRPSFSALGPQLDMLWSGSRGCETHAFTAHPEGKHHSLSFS
- Test description: Inhibition of a panel of kinases, in vitro HotSpot kinase assay: JAK3
- Assay type: biochemical
- Condition description: Table 13, A compounds; 1 μM ATP; read-out: IC50 JAK3
pIC50: −log10 of the molar value.
Property measured: pIC50

Please review the entries below; each comes with its answer.
| Compound | Property measured | Result |
| --- | --- | --- |
| C[C@@H]1[C@H](NC(=O)c2ccc(C(C)(C)C)cc2)CCCN1c1cnc(C(N)=O)c(Nc2ccc(N3CCN(C)CC3)cc2)n1 [Example A-184] | pIC50 | < 5.00 |
| Cc1c(Nc2nc(N3CCC[C@@H](NC(=O)c4ccc(C5CC5)cc4)[C@H]3C)cnc2C(N)=O)cnn1C [Example A-191] | pIC50 | < 5.00 |
| CC1(c2ccc(Nc3nc(N4CCC[C@@H](n5ccc6cc(C7CC7)ccc6c5=O)C4)cnc3C(N)=O)cc2)CCN(C2CCCC2)CC1 [Example A-141] | pIC50 | 6.00 to 7.00 |
| C[C@@H]1[C@H](NC(=O)c2ccc(C3CC3)cc2F)CCCN1c1cnc(C(N)=O)c(Nc2ccc(N3CCN(C)C[C@@H]3C)cc2)n1 [Example A-176] | pIC50 | 6.00 to 7.00 |
| C[C@@H]1[C@H](NC(=O)c2ccc(C3CC3)nc2)CCCN1c1cnc(C(N)=O)c(Nc2cnn(C)c2)n1 [Example A-190] | pIC50 | 5.00 to 6.00 |

So for C[C@@H]1[C@H](NC(=O)c2ccc(C3CC3)cc2F)CCCN1c1cnc(C(N)=O)c(Nc2cc(CN3CCOCC3)ns2)n1 [Example A-128] , the logged pIC50 turned out to be 6.00 to 7.00

So for C[C@@H]1[C@H](NC(=O)c2ccc(C3CC3)cc2F)CCCN1c1cnc(C(N)=O)c(Nc2ccc(S(=O)(=O)N3CCN(C)CC3)cc2)n1 [Example A-156] , the logged pIC50 turned out to be < 5.00

So for C[C@@H]1[C@H](NC(=O)c2ccc(C3CC3)cc2)CCCN1c1cnc(C(N)=O)c(Nc2cnn(CCN(C)C)c2)n1 [Example A-182] , the logged pIC50 turned out to be 5.00 to 6.00

So for COCCn1cc(Nc2nc(N3CCC[C@@H](NC(=O)c4ccc(C5CC5)cc4)[C@H]3C)cnc2C(N)=O)cn1 [Example A-186] , the logged pIC50 turned out to be 5.00 to 6.00
